// MAPK8 (JNK1) (Homo sapiens) pIC50 records
pIC50: −log10 of the molar value.

* C[C@@H]1CCC(c2cc3c4c(cncc4c2)[C@@H](C)C3)=C1C=O [323-2, (15S,2R)-Delavatine A] | < 4.70

Request: pIC50, test system MAPK8 (JNK1) (Homo sapiens), entry C[C@@H]1CCC(c2cc3c4c(cncc4c2)[C@H](C)C3)=C1C=O [323-1, (15R,2R)-Delavatine A]
< 4.70

====

// MET (cMet) (Homo sapiens, UniProt P08581) IC50 records

- C[C@@H]1CCC(c2cc3c4c(cncc4c2)[C@H](C)C3)=C1C=O [323-1, (15R,2R)-Delavatine A]: > 20 µM

Proceeding to the next compound to report its IC50.
I have this compound here, C[C@@H]1CCC(c2cc3c4c(cncc4c2)[C@@H](C)C3)=C1C=O [323-2, (15S,2R)-Delavatine A] , and I need its recorded IC50.
> 20 µM

====

pIC50: −log10 of the molar value.
// AKT2 (PKB beta) (Homo sapiens, UniProt P31751) pIC50 records

• C[C@@H]1CCC(c2cc3c4c(cncc4c2)[C@@H](C)C3)=C1C=O [323-2, (15S,2R)-Delavatine A] = < 4.70

Proceeding to the next molecule to report its pIC50.
I have this molecule here, C[C@@H]1CCC(c2cc3c4c(cncc4c2)[C@H](C)C3)=C1C=O [323-1, (15R,2R)-Delavatine A] , and I need its recorded pIC50.
< 4.70

====

// ERBB4 (HER4) (Homo sapiens, UniProt Q15303) IC50 records

• C[C@@H]1CCC(c2cc3c4c(cncc4c2)[C@@H](C)C3)=C1C=O [323-2, (15S,2R)-Delavatine A] = > 20 µM

Proceeding to the next compound to report its IC50.
I have this compound here, C[C@@H]1CCC(c2cc3c4c(cncc4c2)[C@H](C)C3)=C1C=O [323-1, (15R,2R)-Delavatine A] , and I need its recorded IC50.
> 20 µM

====

molecules and their reported pKi
molecular target: Recombinant Human STAT3 protein (SH2 domain) (Homo sapiens); construct: purchased Abcam ab43618; test: Fluorescence Polarization (FP) competition assay, STAT3 / GpYLPQTV-NH2 peptide; assay type: binding; conditions: background (autofluorescence) subtracted (FIG. 33); read-out: Ki, protein-ligand interaction after background subtraction
Sequence (P40763 whole entry, the tested form may be a part): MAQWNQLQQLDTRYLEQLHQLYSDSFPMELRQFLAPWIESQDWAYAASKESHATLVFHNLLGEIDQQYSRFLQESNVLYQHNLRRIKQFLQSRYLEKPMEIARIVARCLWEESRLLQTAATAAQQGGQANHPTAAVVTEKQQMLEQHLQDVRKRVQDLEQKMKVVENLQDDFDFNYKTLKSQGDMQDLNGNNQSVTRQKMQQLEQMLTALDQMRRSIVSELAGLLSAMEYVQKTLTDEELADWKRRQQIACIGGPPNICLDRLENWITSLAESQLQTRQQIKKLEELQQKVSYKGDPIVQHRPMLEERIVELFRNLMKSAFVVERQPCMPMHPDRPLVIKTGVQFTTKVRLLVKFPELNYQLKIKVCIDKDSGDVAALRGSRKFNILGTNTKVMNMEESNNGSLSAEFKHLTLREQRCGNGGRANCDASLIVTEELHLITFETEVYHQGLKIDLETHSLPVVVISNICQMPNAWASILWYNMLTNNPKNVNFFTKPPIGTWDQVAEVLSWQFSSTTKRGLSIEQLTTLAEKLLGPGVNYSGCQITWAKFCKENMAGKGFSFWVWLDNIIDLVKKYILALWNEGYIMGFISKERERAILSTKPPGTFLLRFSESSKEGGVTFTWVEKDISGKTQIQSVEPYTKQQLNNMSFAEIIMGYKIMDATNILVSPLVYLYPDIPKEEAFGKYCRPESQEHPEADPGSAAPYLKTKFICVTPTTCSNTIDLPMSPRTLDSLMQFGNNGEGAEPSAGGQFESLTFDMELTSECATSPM
pKi field: float, defined as -log10 of concentration (mol/L).

• C[C@@H]1CCC(c2cc3c4c(cncc4c2)[C@H](C)C3)=C1C=O [323-1, (15R,2R)-Delavatine A] = 4.03

Proceeding to the next molecule to report its pKi.
Request: pKi, test system Recombinant Human STAT3 protein (SH2 domain) (Homo sapiens), entry C[C@@H]1CCC(c2cc3c4c(cncc4c2)[C@@H](C)C3)=C1C=O [323-2, (15S,2R)-Delavatine A]
4.12

====

// MAPK10 (JNK3) (Homo sapiens, UniProt P53779) pIC50 records
pIC50: −log10 of the molar value.

- C[C@@H]1CCC(c2cc3c4c(cncc4c2)[C@H](C)C3)=C1C=O [323-1, (15R,2R)-Delavatine A]: < 4.70

Proceeding to the next compound to report its pIC50.
I have this compound here, C[C@@H]1CCC(c2cc3c4c(cncc4c2)[C@@H](C)C3)=C1C=O [323-2, (15S,2R)-Delavatine A] , and I need its recorded pIC50.
< 4.70
